Reference source: patent US20210380703A1

The entries below are paired with their reported optical density.
Target: T1, Goat anti-Human Kappa
T1 construct: Positive control of the ELISA; also called biotinylated goat anti-human kappa light chain
Assay: ELISA, positive control; also: test concentration or dose not given here
Description: The binding of ACVR2A-specific monoclonal antibodies to human ACVR2A, mouse ACVR2A, biotinylated goat anti-human kappa light chain (positive control) and human Fc (negative control) were determined by ELISA.
I only need the number, in OD, no unit after it.

binder="371_B07 (antibody, V domains shown) VH: EVQLLESGGGLVQPGGSLRLSCAASGFTFDSYSMNWVRQAPGKGLEWVAGINYNGGYTSYADSVKGRFTISRDNSKNTLYLQMNSLRAEDTAVYYCARSANWHDTALDYWGQGTLVTVSS VL: DIQMTQSPSSLSASVGDRVTITCRASQSILTYVNWYQQKPGKAPKLLIYAATSRASGVPSRFSGSGSGTDFTLTISSLQPEDFATYYCQQSYELPLTFGGGTKVEIK" reading=3.33
binder="374_D01 (antibody, V domains shown) VH: EVQLLESGGGLVQPGGSLRLSCAASGFTFDSYSMNWVRQAPGKGLEWVSGINYNSGYKGYADSVKGRFTISRDNSKNTLYLQMNSLRAEDTAVYYCARSANWHDTALDYWGQGTLVTVSS VL: DIQMTQSPSSLSASVGDRVTITCRASQSIITYVNWYQQKPGKAPKLLIYAATSLASGVPSRFSGSGSGTDFTLTISSLQPEDFATYYCQQSYSSPLTFGGGTKVEIK" reading=2.94
binder="370_C01 (antibody, V domains shown) VH: EVQLLESGGGLVQPGGSLRLSCAASGFTFDSYSMNWVRQAPGKGLEWVSGINYNSGYTGYADSVKGRFTISRDNSKNTLYLQMNSLRAEDTAVYYCARSANWHDTALDYWGQGTLVTVSS VL: DIQMTQSPSSLSASVGDRVTITCRASQSILTYLNWYQQKPGKAPKLVIYAATSLASGVPSRFSGSGSGTDFTLTISSLQPEDFATYYCQQSYDTPLTFGGGTKVEIK" reading=3.62
binder="370_F05 (antibody, V domains shown) VH: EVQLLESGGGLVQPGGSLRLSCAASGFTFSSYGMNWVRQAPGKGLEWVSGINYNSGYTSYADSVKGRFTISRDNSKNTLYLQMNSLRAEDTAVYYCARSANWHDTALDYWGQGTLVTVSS VL: DIQMTQSPSSLSASVGDRVTITCRASQSIVSYVNWYQQKPGKAPKLVIYAATSRASGVPSRFSGSGSGTDFTLTISSLQPEDFATYYCQQSYETPLTFGGGTKVEIK" reading=3.54

Query binder follows.
Task: Param item = 374_C03 (antibody, V domains shown) VH: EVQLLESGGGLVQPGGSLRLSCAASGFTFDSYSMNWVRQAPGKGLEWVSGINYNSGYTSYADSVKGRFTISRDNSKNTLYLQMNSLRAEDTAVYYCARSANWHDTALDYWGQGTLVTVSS VL: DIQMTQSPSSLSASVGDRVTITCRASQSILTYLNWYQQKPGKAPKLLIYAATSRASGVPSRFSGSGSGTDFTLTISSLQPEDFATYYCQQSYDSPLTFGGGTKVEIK ; retrieve measured optical density.
Output: 3.06
